Several reports have described IC50 for CD73 (Homo sapiens (Human), UniProt P21589); a selection of those results is presented here.

Below, each entry is followed by its recorded IC50 result.
{"columns": ["compound", "IC50"],
 "data": [
  ["Cn1cc(C2(NC(=O)O[C@@H]3CCN(c4cn[nH]c(=O)c4Cl)C3)CC2)cn1", "0.001 to 10 µM"],
  ["COC[C@@](C)(OC[C@H]1O[C@@H](n2nnc3c(NC4CCCC4)nc(Cl)nc32)[C@H](O)[C@@H]1O)P(=O)(O)O", "≤ 0.1 µM"]
]}

So, CC1(C)CCC(NC(=O)O[C@@H]2CCN(c3cn[nH]c(=O)c3Cl)C2)C1 (stereo partly shown) ? Its IC50 was 0.001 to 10 µM

So, CN(C[C@H]1O[C@@H](n2cnc3c(NC4CCCC4)nc(Cl)nc32)[C@H](O)[C@@H]1O)C(=O)CP(=O)(O)OCOC(=O)OCC(C)(C)C ? Its IC50 was > 1 µM

So, CC(CO)(OC[C@H]1O[C@@H](n2ncc3c(NC4CCC4)nc(Cl)nc32)[C@H](O)[C@@H]1O)P(=O)(O)O (stereo partly shown) ? Its IC50 was ≤ 0.1 µM

So, CC1(C)CCCCC1NC(=O)O[C@@H]1CCN(c2cn[nH]c(=O)c2Cl)C1 (stereo partly shown) ? Its IC50 was 0.001 to 10 µM

So, O=C(NCCC1CCCC1)O[C@@H]1CCN(c2cn[nH]c(=O)c2Cl)C1 ? Its IC50 was 0.001 to 10 µM
